- system tested: hGhrR (COS7 cells stably transfected with hGhrR) (Homo sapiens, UniProt Q92847)
- Construct: expressed in transfected cells
- Sequence (Q92847 whole entry): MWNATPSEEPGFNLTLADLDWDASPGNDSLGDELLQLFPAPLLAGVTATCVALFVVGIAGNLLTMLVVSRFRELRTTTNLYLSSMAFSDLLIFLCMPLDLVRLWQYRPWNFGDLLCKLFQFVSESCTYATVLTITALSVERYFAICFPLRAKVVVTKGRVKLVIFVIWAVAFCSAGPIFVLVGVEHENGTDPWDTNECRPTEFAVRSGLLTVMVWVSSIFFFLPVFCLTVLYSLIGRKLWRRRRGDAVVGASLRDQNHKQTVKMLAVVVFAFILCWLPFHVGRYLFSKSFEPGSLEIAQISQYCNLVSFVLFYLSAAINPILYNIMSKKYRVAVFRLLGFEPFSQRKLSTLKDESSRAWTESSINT
- procedure summary: Inositol phosphate accumulation assay, antagonistic potency with 10^-8 M ghrelin
- Assay type: cell-based
- condition info: 5 min pre-stimulation with compound, then 10^-8 M ghrelin; read-out: IC50 (antagonistic potency)
pIC50: −log10 of the molar value.
endpoint: pIC50

INSERT INTO assay_data (compound, system_tested, endpoint, quantitative_result) VALUES
  ('Cc1nc2ccc(Oc3ccc(Br)cc3F)nc2c(=O)n1C[C@H]1CCCN(CCF)C1 [(S)-10]', 'hGhrR (COS7 cells stably transfected with hGhrR) (Homo sapiens, UniProt Q92847)', 'pIC50', 6.46);

I. Cc1nc2ccc(Oc3ccc(Br)cc3)nc2c(=O)n1C[C@H]1CCCN(C(C)C)C1 [(S)-14]
II. CC(C)N1CCC[C@H](Cn2cnc3ccc(Oc4ccc(Br)cc4F)nc3c2=O)C1 [(S)-16]
Could you kindly indicate whether I or II has the higher pIC50 value? Response format: the label of the selected entry. II
(II: 7.54, I: 6.91)
